Reported %Inh by item:
- Test system: ITK
- experimental_context: concentration: 1 μM, replicates: in singlicate; n = 1
reported_endpoint: %Inh (%)

compound="COc1ccc(Nc2nccc(NCCNC(=O)Nc3ccccc3F)n2)cc1 [GSK1379901]" system_under_test=ITK value=9
compound="COc1ccc(C2=C(Nc3cccc(C(=O)O)c3)C(=O)NC2=O)cc1 [SB-390765]" system_under_test=ITK value=0
compound="CCn1c(-c2ccccn2)nc2cnccc21 [SB-736398]" system_under_test=ITK value=0
compound="Cc1cc(NCC(c2ccccc2)c2ccccc2)nc(NCc2ccc(C(F)(F)F)cc2)n1 [GW497681]" system_under_test=ITK value=0
compound="O=C1NC(=O)C(N2CCc3ccccc32)=C1c1ccccc1Cl [SB-373598]" system_under_test=ITK value=10
compound="Cc1nnc(-c2ccc3occ(-c4ccc(S(C)=O)cc4)c3c2)[nH]1 (stereo not drawn)" system_under_test=ITK value=13
compound="COc1ccc(CNC(=O)NC2CCN(c3ccnc(Nc4cc(OC)c(OC)c(OC)c4)n3)C2)cc1 (stereo not drawn) [GSK1379748]" system_under_test=ITK value=7
compound="Fc1cc(Cl)ccc1Nc1ccnc2cc(I)ccc12 [GW551191]" system_under_test=ITK value=13
compound=Cn1ccc2ncnc(Oc3ccc(NC(=O)Nc4ccccc4)cc3)c21 system_under_test=ITK value=0

---

- Test system: BMPR1A;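 note: kd values determined as follow-up on hits from a single-replicate KINOMEscan panel screen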
reported_endpoint: Kd

compound_structure=Cc1ccc(NC(=O)Nc2cccc(C(F)(F)F)c2)cc1 value="> 10 µM"

---

- Test system: IKK-epsilon
- Construct: gene IKBKE
- experimental_context: concentration: 1 μM, replicates: in singlicate; n = 1
Reported %Inh by item:
reported_endpoint: %Inh (%)

compound="O=C1NC(=O)C(N2CCc3ccccc32)=C1c1ccccc1Cl [SB-373598]" system_under_test=IKK-epsilon reported_endpoint=%Inh value=30
compound="Cn1cncc1-c1ccc2ncnc(Nc3ccc(OCc4ccccc4)cc3)c2c1 [GW320571]" system_under_test=IKK-epsilon reported_endpoint=%Inh value=0
compound="CN(C)CCN(C)C(=O)c1cc(-c2ccncc2)c(-c2ccc(Cl)c(O)c2)o1.Cl.Cl [SB-710397]" system_under_test=IKK-epsilon reported_endpoint=%Inh value=34
compound=COC(=O)c1c(-c2ccccc2)c2cc(OC)ccc2c(=O)n1Cc1ccccc1 system_under_test=IKK-epsilon reported_endpoint=%Inh value=0
compound="Cl.c1ccc(-c2n[nH]cc2-c2ccnc(-c3ccc(CN4CCOCC4)cc3)c2)nc1 [GW776245]" system_under_test=IKK-epsilon reported_endpoint=%Inh value=0

---

- Tested on: FGFR4
- experimental_context: concentration: 1 μM, replicates: in singlicate; n = 1
reported_endpoint: %Inh (%)

compound_structure=Cn1ccc2ncnc(Oc3ccc(NC(=O)Nc4ccccc4)cc3)c21 system_under_test=FGFR4 reported_endpoint=%Inh value=11
compound_structure=Nc1nc(-c2nccs2)c(-c2ccnc3ccccc23)s1 system_under_test=FGFR4 reported_endpoint=%Inh value=8
compound_structure=Fc1cc(Cl)ccc1Nc1ccnc2cc(I)ccc12 system_under_test=FGFR4 reported_endpoint=%Inh value=5
compound_structure=CC(=O)Nc1nc2cnc(Nc3cc(NC(=O)c4cccc(CCC#N)c4)ccc3C)nc2s1 system_under_test=FGFR4 reported_endpoint=%Inh value=0
compound_structure=Cn1ccc2ncnc(Oc3cccc(C(=O)Nc4ccccc4)c3)c21 system_under_test=FGFR4 reported_endpoint=%Inh value=6
compound_structure=COc1ccc2nc(-c3cccc(C)n3)nc(Nc3ccncc3)c2c1 system_under_test=FGFR4 reported_endpoint=%Inh value=20
compound_structure=CCn1c(-c2ccccn2)nc2cnccc21 system_under_test=FGFR4 reported_endpoint=%Inh value=1
compound_structure=O=C(Nc1ccccc1)Nc1cccc(Oc2ccc3nccn3n2)c1 system_under_test=FGFR4 reported_endpoint=%Inh value=0
compound_structure=Cc1ccc(C(=O)Nc2ccc(Nc3ccnc4cc(-c5ccccn5)ccc34)cc2O)cc1.Cl system_under_test=FGFR4 reported_endpoint=%Inh value=0
compound_structure=Cl.c1ccc(-c2n[nH]cc2-c2ccnc(-c3ccc(CN4CCOCC4)cc3)c2)nc1 system_under_test=FGFR4 reported_endpoint=%Inh value=1
compound_structure=COc1ccc(C2=C(Nc3cccc(C(=O)O)c3)C(=O)NC2=O)cc1 system_under_test=FGFR4 reported_endpoint=%Inh value=0
compound_structure=COC(=O)c1c(-c2ccccc2)c2cc(OC)ccc2c(=O)n1Cc1ccccc1 system_under_test=FGFR4 reported_endpoint=%Inh value=0
compound_structure=O=C(O)COc1ncnc2cc(-c3ccc4[nH]ncc4c3)sc12 system_under_test=FGFR4 reported_endpoint=%Inh value=0
compound_structure=Cc1ccc(-c2cc(-c3c[nH]nc3-c3ccccn3)ccn2)cc1 system_under_test=FGFR4 reported_endpoint=%Inh value=9
compound_structure=Cc1cccc(-c2nc(Nc3cccc(C(N)=O)c3)c3ccccc3n2)n1 system_under_test=FGFR4 reported_endpoint=%Inh value=0
compound_structure=Cc1csc(-c2nc(Nc3ccncc3)c3ccccc3n2)n1 system_under_test=FGFR4 reported_endpoint=%Inh value=16
compound_structure=Cc1cccc(-c2nc(-c3ccc(S(C)(=O)=O)cc3)sc2-c2ccnc(NCCc3ccccc3)c2)c1 system_under_test=FGFR4 reported_endpoint=%Inh value=0
compound_structure=Cc1cccc(-c2nc(Nc3ccc4[nH]ncc4c3)c3ccccc3n2)n1 system_under_test=FGFR4 reported_endpoint=%Inh value=0
compound_structure=Clc1cc(Cl)cc(Nc2ccnc(Nc3cc(Cl)cc(Cl)c3)n2)c1 system_under_test=FGFR4 reported_endpoint=%Inh value=6

---

- Tested on: GAK
- experimental_context: concentration: 1 μM, replicates: in singlicate; n = 1
Reported %Inh by item:
reported_endpoint: %Inh (%)

molecule=COc1ccc2nc(-c3cccc(C)n3)nc(Nc3ccncc3)c2c1 reported_endpoint=%Inh value=8
molecule=Cc1ccc(C(=O)Nc2ccc(Nc3ccnc4cc(-c5ccccn5)ccc34)cc2O)cc1.Cl reported_endpoint=%Inh value=7
molecule=Cc1cccc(-c2nc(Nc3ccc4[nH]ncc4c3)c3ccccc3n2)n1 reported_endpoint=%Inh value=0
molecule=Cl.Oc1ccc(-c2nc(-c3ccccc3)[nH]c2-c2ccncc2)cc1 reported_endpoint=%Inh value=36
molecule="COc1cc(Nc2nccc(N3CCC(NC(=O)Nc4cc(C)ccc4C)C3)n2)cc(OC)c1OC (stereo not drawn)" reported_endpoint=%Inh value=28
molecule=Cl.c1ccc(-c2n[nH]cc2-c2ccnc(-c3ccc(CN4CCOCC4)cc3)c2)nc1 reported_endpoint=%Inh value=46
molecule=Cc1ccc(-c2cc(-c3c[nH]nc3-c3ccccn3)ccn2)cc1 reported_endpoint=%Inh value=80
molecule="COc1cccc(NC(=O)NC2CCN(c3ccnc(Nc4ccc(F)cc4)n3)C2)c1 (stereo not drawn)" reported_endpoint=%Inh value=3
molecule=Cl.O=C(Nc1cccc(-c2nn3ncccc3c2-c2ccnc(Nc3cccnc3)n2)c1)c1c(F)cccc1F reported_endpoint=%Inh value=8
molecule=CS(=O)(=O)c1ccc(-c2nc3n(c2-c2ccncc2)CCC3)cc1 reported_endpoint=%Inh value=7
molecule=Cc1ccc(NC(=O)Nc2cccc(Cl)c2)cc1-c1ccc(C(=O)Nc2ccncc2)cc1 reported_endpoint=%Inh value=5
molecule=CCn1c(-c2ccccn2)nc2cnccc21 reported_endpoint=%Inh value=9
molecule=COc1cc2nccc(Nc3ccc(NC(=O)c4ccc(C)cc4)c(O)c3)c2cc1OC.Cl reported_endpoint=%Inh value=11
molecule=Cc1cc(-c2ccc3c(c2)CC[C@@H](N[C@@H](C)c2ccccc2)C3)cnc1N.Cl reported_endpoint=%Inh value=33
molecule=Cn1cncc1-c1ccc2ncnc(Nc3ccc(OCc4ccccc4)cc3)c2c1 reported_endpoint=%Inh value=0
molecule=COC(=O)c1c(-c2ccccc2)c2cc(C(=O)O)ccc2c(=O)n1Cc1ccccc1 reported_endpoint=%Inh value=0
molecule="CCCc1ccc(S(=O)(=O)NC2CCN(c3ccnc(Nc4ccc(F)cc4)n3)C2)cc1 (stereo not drawn)" reported_endpoint=%Inh value=10
molecule=O=c1cc(N2CCOCC2)nc2n(Cc3cccc(Cl)c3Cl)ccn12 reported_endpoint=%Inh value=6

---

- System: STK16
- experimental_context: concentration: 1 μM, replicates: in singlicate; n = 1
Reported %Inh by item:
reported_endpoint: %Inh (%)

molecule="COc1cc(Nc2nccc(N3CCC(NC(=O)Nc4cc(C)ccc4C)C3)n2)cc(OC)c1OC (stereo not drawn)" reported_endpoint=%Inh value=57
molecule=CC(C)(C)c1ccc(C(=O)Nc2cn3cc(Cl)ccc3n2)cc1 reported_endpoint=%Inh value=0
molecule=CCn1c(-c2ccccn2)nc2cnccc21 reported_endpoint=%Inh value=0
molecule=CN1C(=O)C(Nc2ccc(Cl)c(C(=O)O)c2)=C(c2ccc(Cl)cc2)C1=O reported_endpoint=%Inh value=0
molecule=Cc1cccc(-c2nc(Nc3ccncc3)c3ccccc3n2)n1 reported_endpoint=%Inh value=7
molecule="COc1ccc(CNC(=O)NC2CCN(c3ccnc(Nc4cc(OC)c(OC)c(OC)c4)n3)C2)cc1 (stereo not drawn)" reported_endpoint=%Inh value=54
molecule=Cc1cc(N2Cc3ccccc3C2)nc(Nc2ccc(S(=O)(=O)N3CCOCC3)cc2)n1.Cl reported_endpoint=%Inh value=0
molecule=O=C1NC(=O)C(N2CCc3ccccc32)=C1c1ccccc1Cl reported_endpoint=%Inh value=58
molecule="COc1cc2ncn(-c3cc(OCC4CCCO4)c(C(N)=O)s3)c2cc1OC (stereo not drawn)" reported_endpoint=%Inh value=5
